# test.name: qHTS assay for small molecule agonists of the antioxidant response element (ARE) signaling pathway measured by Nrf2-dependant transcriptional activity - cell viability counter screen (AID 720653); also: % is scaled to controls: 0 for no effect and ±100 for the full control effect
# conditions.used: ARE-bla HepG2 viability, CellTiter-Glo ATP luminescence, 16 h; hits give low values
Inconclusive results are not listed. Active and inactive are the calls of the source. Calls follow the shape of the dose curve; as a rule, active = well fitted cell-killing curve with a large enough effect in the repeat runs; inconclusive = weak or mixed curves; inactive = flat fitted curve, though single readings scatter.
Reported max response values are given for each entry in this list.

Previously resolved entries follow.
| compound | quantity | observed.result |
| --- | --- | --- |
| O=C(O)c1cc(-c2ccccc2)nc2ccccc12 | max response | -16.1% (inactive) |
| O=c1cc(-c2ccccc2)oc2cc(O)cc(O)c12 | max response | -2.85% (inactive) |
| CC/C(=C(\c1ccccc1)c1ccc(OCCN(C)C)cc1)c1ccccc1 | max response | -20.9% (inactive) |
| CN(C)CCC(c1ccccc1)c1ccccn1 (stereo unspecified) | max response | -6.47% (inactive) |
| CC(=O)N[C@@H](CS)C(=O)O | max response | 3.38% (inactive) |

Return reported max response; argument: `CC(C)OC(=O)C(C)(C)Oc1ccc(C(=O)c2ccc(Cl)cc2)cc1`
3.55% (inactive)

###

# test.name: qHTS Screen of the MIPE 4.0 Collection Against Ewings Sarcoma (TC32) (AID 1259256); also: nearly all actives have a fitted effect of over 45% in size
# conditions.used: TC32 Ewing sarcoma viability, CellTiter-Glo, 48 h; series mostly up to 45.8 µM
Inconclusive results are not listed. Activity calls are given as the source filed them. Calls follow the shape of the dose curve; as a rule, active = well fitted inhibition curve with a large enough effect; inconclusive = small, poorly fitted or top-dose-only effect; inactive = no such curve, though single readings can be large or run the other way.
Can you answer with just one of these options? true (active), false (inactive)

| molecule | category.label |
| --- | --- |
| COc1ccc(Cc2nccc3cc(OC)c(OC)cc23)cc1OC | true |

What was the test verdict on COc1ccc(C2Sc3ccccc3N(CCN(C)C)C(=O)C2OC(C)=O)cc1 (stereo not drawn) ?
false

How about this molecule: `O=C1c2c(O)cc(O)cc2O[C@H](c2cc(O)c(O)c(O)c2)[C@H]1O`
false

Also Clc1ccc(CCC(Cn2ccnc2)Sc2c(Cl)cccc2Cl)cc1 (stereo not drawn) ?
false

Another molecule: `Cc1c(NC(=O)c2ccc(C(C)(C)C)cc2)cccc1-c1cn(C)c(=O)c(Nc2ccc(C(=O)N3CCOCC3)cc2)n1`
true

Please give the result for `O=C(NCc1ccccc1)c1csc(Nc2ccncn2)n1` too.
true

Same question, `Cc1nc(N)sc1-c1ccnc(Nc2ccc(N3CCOCC3)cc2)n1` this time
true

Now try `Cc1ccc(C(=O)Nc2cccc(C(F)(F)F)c2)cc1Nc1nc(-c2cccnc2)nc2c1cnn2C` .
true

###

# test.name: qHTS of pediatric cancer cell lines to identify multiple opportunities for drug repurposing: Primary screen for SJ-GBM2 cells (AID 1347091)
# conditions.used: SJ-GBM2 viability, CellTiter-Glo luminescence, 48 h; series mostly up to 46 µM
Records with an inconclusive call do not appear. Activity calls are given as the source filed them. The call rests on the fitted dose curve; in most records, active means well fitted cell-killing curve with a large enough effect; inconclusive means small, poorly fitted or top-dose-only effect; inactive means no such curve, though single readings can be large or run the other way.
Pick from active, inactive when you respond.

What did the test return for `O=C(CCN1CCN(C(=O)OCc2cc(Cl)cc(Cl)c2)CC1)c1ccc2[nH]c(=O)oc2c1` ?
inactive

Next: COc1ccc(C2Sc3ccccc3N(CCN(C)C)C(=O)C2OC(C)=O)cc1 (centres undefined)
inactive

Try this molecule next: CN1[C@@H]2CCC[C@@H]1CC(NC(=O)c1nn(C)c3ccccc13)C2 (some centres undefined)
inactive

Further, for `Cn1c(N2CCCCS2(=O)=O)nc(C(=O)NCc2ccc(F)cc2)c(O)c1=O` ?
inactive

Ok, now `CO[C@@H](C(=O)N1Cc2[nH]nc(NC(=O)c3ccc(N4CCN(C)CC4)cc3)c2C1)c1ccccc1`
active

Thanks! And COc1ccc(-c2oc3c(CC=C(C)C)c(OC4O[C@H](CO)[C@@H](O)[C@H](O)[C@@H]4O)cc(O)c3c(=O)c2OC2O[C@@H](C)[C@H](O)[C@@H](O)[C@@H]2O)cc1 (some centres undefined) ?
active

Item: `COc1ccc(-c2coc3cc(O)cc(O)c3c2=O)cc1`
inactive

Thanks! And `N[C@@]1(C(=O)O)CS(=O)(=O)[C@H]2[C@H](C(=O)O)[C@H]21` ?
inactive

Now the molecule `CCc1ccc(OCc2ccccc2C(=O)Nc2ccc3nc(C)cc(N)c3c2)cc1`
active

Values were extracted from PubChem BioAssay (NCATS).
